Tested on: Staphylococcus haemolyticus LJH9
Experiment: microbe, parasite or virus in culture
Non-standard residues stand in square brackets, D forms with d. Residues, ends and D or L forms follow the SMILES beside them.
Below, each of the compounds is paired with its reported MIC value.

Compound: CC(C)C[C@@H]1NC(=O)[C@H](Cc2c[nH]c3ccccc23)NC(=O)[C@@H](CCCCN)NC(=O)[C@H](CC(N)=O)NC(=O)[C@H](CC(C)C)NC(=O)[C@@H](CC(C)C)NC1=O [Compound 17, Desotamide A8] (cyclo([dK]WL[dL]LN))
MIC: 64 µg/mL

Compound: CC[C@H](C)[C@@H]1NC(=O)[C@H](CC(N)=O)NC(=O)[C@@H](CCCCN)NC(=O)[C@H](Cc2c[nH]c3ccccc23)NC(=O)[C@H](CC(C)C)NC(=O)[C@@H](CC(C)C)NC1=O [Compound 13, Desotamide A4] (cyclo(I[dL]LW[dK]N))
MIC: 32 µg/mL

Compound: CC(C)C[C@@H]1NC(=O)[C@H](Cc2c[nH]c3ccccc23)NC(=O)[C@@H](CCCCN)NC(=O)[C@H](CC(N)=O)NC(=O)[C@H](C(C)C)NC(=O)[C@@H](CC(C)C)NC1=O [Compound 9, Wollamide B2] (cyclo([dK]WL[dL]VN))
MIC: 32 µg/mL

Compound: CC(C)C[C@@H]1NC(=O)[C@H](CC(N)=O)NC(=O)CNC(=O)[C@H](Cc2c[nH]c3ccccc23)NC(=O)[C@H](CC(C)C)NC(=O)[C@@H](CC(C)C)NC1=O [Compound 16, Desotamide A7] (cyclo(NL[dL]LWG))
MIC: >128 µg/mL
